molecular target: CDK4/cyclin D1 (Homo sapiens); test: Kinase assay CDK4/cyclin D1;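 note: Enzyme: His6-tagged recombinant human CDK4 produced in baculovirus-infected Sf9 insect cells and purified by metal-chelate chromatography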
Sequence (P11802 whole entry): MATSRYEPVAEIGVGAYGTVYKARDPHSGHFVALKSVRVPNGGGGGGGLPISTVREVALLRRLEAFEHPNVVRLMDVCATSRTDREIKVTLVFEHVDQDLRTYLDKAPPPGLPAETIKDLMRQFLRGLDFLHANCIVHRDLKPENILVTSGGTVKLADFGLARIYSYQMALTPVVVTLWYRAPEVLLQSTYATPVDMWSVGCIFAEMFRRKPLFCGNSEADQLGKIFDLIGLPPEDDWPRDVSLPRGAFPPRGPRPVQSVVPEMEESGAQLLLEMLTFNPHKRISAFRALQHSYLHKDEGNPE
Sequence (P24385 whole entry partner): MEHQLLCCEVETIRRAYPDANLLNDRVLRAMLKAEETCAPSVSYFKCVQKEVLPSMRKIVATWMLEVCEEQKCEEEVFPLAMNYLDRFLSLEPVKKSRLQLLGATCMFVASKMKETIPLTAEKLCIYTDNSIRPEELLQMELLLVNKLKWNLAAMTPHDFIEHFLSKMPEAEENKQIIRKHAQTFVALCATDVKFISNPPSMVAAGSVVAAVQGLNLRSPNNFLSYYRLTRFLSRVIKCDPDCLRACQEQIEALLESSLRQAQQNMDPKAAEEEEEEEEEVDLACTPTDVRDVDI
IC50 values, listed per item
# value in µM; strip the unit string

Consider the reported IC50 for these molecules:
{"structure-string": "Cc1c(-c2ccnc(Nc3ccc(N(C)C)cc3)n2)sc(=O)n1C", "IC50 (µM)": 3.82}
{"structure-string": "Cc1c(-c2ccnc(Nc3ccc(F)c([N+](=O)[O-])c3)n2)sc(=O)n1C", "IC50 (µM)": 2.33}
{"structure-string": "Cc1c(-c2ccnc(Nc3ccc(Cl)cc3)n2)sc(=O)n1C", "IC50 (µM)": 1.09}
{"structure-string": "Cc1nc(NC(=O)CCl)sc1-c1ccnc(Nc2ccc(F)cc2)n1", "IC50 (µM)": 0.68}
{"structure-string": "COc1ccc(Nc2nccc(-c3sc(C)nc3C)n2)cc1N(C)C", "IC50 (µM)": 2.88}

Query :: Lab request: please report IC50 under test system CDK4/cyclin D1 (Homo sapiens) for Cc1nc(N)sc1-c1ccnc(Nc2ccc(Cl)cc2)n1
Result :: 0.46

Query :: Lab request: please report IC50 under test system CDK4/cyclin D1 (Homo sapiens) for Cc1c(-c2ccnc(Nc3cccc(O)c3)n2)sc(=O)n1C
Result :: 1.41

Query :: Lab request: please report IC50 under test system CDK4/cyclin D1 (Homo sapiens) for CNc1nc(C)c(-c2ccnc(Nc3ccc(I)c([N+](=O)[O-])c3)n2)s1
Result :: 0.25

Query :: Lab request: please report IC50 under test system CDK4/cyclin D1 (Homo sapiens) for Cc1nc(N)sc1-c1ccnc(Nc2cccc(I)c2)n1
Result :: 0.24

Query :: Lab request: please report IC50 under test system CDK4/cyclin D1 (Homo sapiens) for Cc1nc(N)sc1-c1ccnc(Nc2cccc(O)c2)n1
Result :: 0.45

Query :: Lab request: please report IC50 under test system CDK4/cyclin D1 (Homo sapiens) for COc1ccc(Nc2nccc(-c3sc(N)nc3C)n2)cc1
Result :: 0.42
